# TESTED ON: HTR1E (Homo sapiens)
# Construct: purchased Promega (in-house HiBiT-GPCR construct library, NanoBRET)
# Sequence (P28566 whole entry): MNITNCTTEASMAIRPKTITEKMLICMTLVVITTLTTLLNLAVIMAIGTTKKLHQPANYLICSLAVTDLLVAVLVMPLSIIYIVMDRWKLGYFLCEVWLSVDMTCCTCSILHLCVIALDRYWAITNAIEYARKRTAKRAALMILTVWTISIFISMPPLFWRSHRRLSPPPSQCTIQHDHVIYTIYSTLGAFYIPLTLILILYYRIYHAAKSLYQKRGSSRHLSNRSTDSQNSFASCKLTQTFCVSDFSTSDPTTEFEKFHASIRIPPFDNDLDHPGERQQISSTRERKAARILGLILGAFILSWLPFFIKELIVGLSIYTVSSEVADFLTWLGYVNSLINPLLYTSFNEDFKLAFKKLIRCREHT
# ASSAY METHOD TEXT: NanoBRET screen HiBiT-HTR1E in HEK293
# Format: binding
# EXPERIMENTAL SETUP: HTR1E; tracer 1μM
READOUT: NanoBRET Fold Response

[[record]]
molecule = "N#CN=C(NCCCOc1cccc(CN2CCCCC2)c1)NCCNC(=O)CCOCCOCCOCCOCCNC(=O)CCc1ccc2n1[B-](F)(F)[N+]1=C(c3ccc[nH]3)C=CC1=C2"
readout = "NanoBRET Fold Response"
reported_result = 1.06

[[record]]
molecule = "O=C(CCc1ccc2n1[B-](F)(F)[N+]1=C(c3ccc[nH]3)C=CC1=C2)NCc1ccc(C(=O)NCCOCCC(=O)N[C@@H]2CC[C@@]3(O)[C@H]4Cc5ccc(O)c6c5[C@@]3(CCN4CC3CC3)[C@H]2O6)cc1 [Naltrexone-3-NB590]"
readout = "NanoBRET Fold Response"
reported_result = 0.90

[[record]]
molecule = "CC(C)N(CC[C@H](c1ccccc1)c1cc(CCNC(=O)c2ccc(CNC(=O)CCc3ccc4n3[B-](F)(F)[N+]3=C(c5ccc[nH]5)C=CC3=C4)cc2)ccc1O)C(C)C"
readout = "NanoBRET Fold Response"
reported_result = 1.13

[[record]]
molecule = "Cc1nc2n(c(=O)c1CCN1CCC(c3noc4cc(F)ccc34)CC1)CCCC2OC(=O)NCCOCCOCCOCCOCCNC(=O)CCc1ccc2n1[B-](F)(F)[N+]1=C(c3ccc[nH]3)C=CC1=C2 (stereo not shown)"
readout = "NanoBRET Fold Response"
reported_result = 1.07

[[record]]
molecule = "O=C(CCOCCOCCOCCOCCNC(=O)CCc1ccc2n1[B-](F)(F)[N+]1=C(c3ccc[nH]3)C=CC1=C2)NCCCN1CCN(C2=Nc3ccccc3Oc3ccc(Cl)cc32)CC1"
readout = "NanoBRET Fold Response"
reported_result = 0.96

[[record]]
molecule = "CCCn1c(=O)c2[nH]c(-c3ccc(OCC(=O)NCCNC(=O)CCOCCNC(=O)c4ccc(CNC(=O)CCc5ccc6n5[B-](F)(F)[N+]5=C(c7ccc[nH]7)C=CC5=C6)cc4)cc3)nc2n(CCC)c1=O"
readout = "NanoBRET Fold Response"
reported_result = 0.78

[[record]]
molecule = "Cc1cc2c(s1)Nc1ccccc1N=C2N1CCN(CCCNC(=O)CCOCCOCCOCCOCCNC(=O)CCc2ccc3n2[B-](F)(F)[N+]2=C(c4ccc[nH]4)C=CC2=C3)CC1"
readout = "NanoBRET Fold Response"
reported_result = 1.09


* * *

Let's look at some compounds and their measured NanoBRET Fold Response.
# TESTED ON: GRM2 (Homo sapiens, UniProt Q14416)
# Construct: purchased Promega (in-house HiBiT-GPCR construct library, NanoBRET)
# Sequence (Q14416 19-872): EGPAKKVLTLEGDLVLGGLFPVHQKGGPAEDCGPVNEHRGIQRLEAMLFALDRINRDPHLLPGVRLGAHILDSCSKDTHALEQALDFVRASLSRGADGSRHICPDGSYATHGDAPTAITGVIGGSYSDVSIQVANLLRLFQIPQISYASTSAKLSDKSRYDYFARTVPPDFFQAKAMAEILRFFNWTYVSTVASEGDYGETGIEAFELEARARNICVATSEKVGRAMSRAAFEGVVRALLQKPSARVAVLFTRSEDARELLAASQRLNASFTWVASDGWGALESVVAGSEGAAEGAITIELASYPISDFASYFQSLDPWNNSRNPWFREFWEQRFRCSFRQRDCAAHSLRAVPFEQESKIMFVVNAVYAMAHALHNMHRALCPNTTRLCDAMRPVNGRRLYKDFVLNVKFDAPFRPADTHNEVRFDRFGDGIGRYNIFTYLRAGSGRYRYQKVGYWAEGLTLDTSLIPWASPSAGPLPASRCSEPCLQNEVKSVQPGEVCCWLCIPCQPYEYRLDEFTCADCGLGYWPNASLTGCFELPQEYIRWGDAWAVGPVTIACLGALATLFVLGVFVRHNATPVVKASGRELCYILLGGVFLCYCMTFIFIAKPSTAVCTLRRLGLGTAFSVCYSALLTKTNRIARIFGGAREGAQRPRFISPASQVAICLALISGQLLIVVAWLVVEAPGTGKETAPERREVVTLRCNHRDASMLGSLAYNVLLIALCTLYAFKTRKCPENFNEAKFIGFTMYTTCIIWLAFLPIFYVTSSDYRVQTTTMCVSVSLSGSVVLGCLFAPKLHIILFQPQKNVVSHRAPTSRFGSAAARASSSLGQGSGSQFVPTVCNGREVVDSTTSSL
# ASSAY METHOD TEXT: NanoBRET screen HiBiT-GRM2 in HEK293
# Type: binding
# EXPERIMENTAL SETUP: GRM2; tracer 0.1μM
# Description: Each tracer candidate was screened across the entire library of HiBiT-GPCR constructs using NanoBRET as the detection modality. As depicted in Figure 4A, the specificity of interactions was evaluated through decrease in BRET due to competitive displacement of a bound tracer by excess parental compound. Each tracer was analyzed for binding to each HiBiT-GPCR fusion in the absence and in the presence of competing parental compound. […]
READOUT: NanoBRET Fold Response

[[record]]
compound = "CC(C)N(CC[C@H](c1ccccc1)c1cc(CCNC(=O)c2ccc(CNC(=O)CCc3ccc4n3[B-](F)(F)[N+]3=C(c5ccc[nH]5)C=CC3=C4)cc2)ccc1O)C(C)C [Tolterodine-BZ-NB590]"
reported_result = 1.00

[[record]]
compound = "CN(C)CCC=C1c2ccccc2CCc2ccc(C(=O)NCCNC(=O)CCOCCOCCOCCOCCNC(=O)CCc3ccc4n3[B-](F)(F)[N+]3=C(c5ccc[nH]5)C=CC3=C4)cc21 [Amitriptyline-b-2-NB590]"
reported_result = 0.97

[[record]]
compound = "Cc1cc2c(s1)Nc1ccccc1N=C2N1CCN(CCCNC(=O)CCOCCOCCOCCOCCNC(=O)CCc2ccc3n2[B-](F)(F)[N+]2=C(c4ccc[nH]4)C=CC2=C3)CC1 [Olanzapine-a-2-NB590]"
reported_result = 1.00

[[record]]
compound = "COc1ccccc1N1CCN(CCCCN2C(=O)c3ccc(CNC(=O)CCOCCOCCOCCOCCNC(=O)CCc4ccc5n4[B-](F)(F)[N+]4=C(c6ccc[nH]6)C=CC4=C5)cc3C2=O)CC1 [NAN-190-2-NB590]"
reported_result = 0.26

[[record]]
compound = "O=C(CCc1ccc2n1[B-](F)(F)[N+]1=C(c3ccc[nH]3)C=CC1=C2)NCCOCCOCCNC(=O)OCCOCCN1CCN(C2=Nc3ccccc3Sc3ccccc32)CC1 [Quetiapine-a-2-NB590]"
reported_result = 0.92

[[record]]
compound = "N#CN=C(NCCCOc1cccc(CN2CCCCC2)c1)NCCNC(=O)CCOCCOCCOCCOCCNC(=O)CCc1ccc2n1[B-](F)(F)[N+]1=C(c3ccc[nH]3)C=CC1=C2 [Aminopotentidine-2-NB590]"
reported_result = 1.05

[[record]]
compound = "O=C(CCc1ccc2n1[B-](F)(F)[N+]1=C(c3ccc[nH]3)C=CC1=C2)NCc1ccc(C(=O)NCCOCCC(=O)N[C@@H]2CC[C@@]3(O)[C@H]4Cc5ccc(O)c6c5[C@@]3(CCN4CC3CC3)[C@H]2O6)cc1 [Naltrexone-3-NB590]"
reported_result = 0.92

[[record]]
compound = "Cc1nc2n(c(=O)c1CCN1CCC(c3noc4cc(F)ccc34)CC1)CCCC2OC(=O)NCCOCCOCCOCCOCCNC(=O)CCc1ccc2n1[B-](F)(F)[N+]1=C(c3ccc[nH]3)C=CC1=C2 (stereo not drawn) [Risperidone-2-NB590]"
reported_result = 0.96

[[record]]
compound = "CC(C)N(CC[C@H](c1ccccc1)c1cc(CCNC(=O)CCOCCOCCOCCOCCNC(=O)CCc2ccc3n2[B-](F)(F)[N+]2=C(c4ccc[nH]4)C=CC2=C3)ccc1O)C(C)C [Tolterodine-2-NB590]"
reported_result = 0.99

[[record]]
compound = "O=C(CCOCCOCCOCCOCCNC(=O)CCc1ccc2n1[B-](F)(F)[N+]1=C(c3ccc[nH]3)C=CC1=C2)NCCCN1CCN(C2=Nc3ccccc3Oc3ccc(Cl)cc32)CC1 [Loxapine-a-2-NB590]"
reported_result = 1.00

[[record]]
compound = "COc1ccccc1N1CCN(CCCCN2C(=O)c3ccc(CNC(=O)CCOCCNC(=O)c4ccc(CNC(=O)CCc5ccc6n5[B-](F)(F)[N+]5=C(c7ccc[nH]7)C=CC5=C6)cc4)cc3C2=O)CC1 [NAN-190-3-NB590]"
reported_result = 1.03

[[record]]
compound = "CCCn1c(=O)c2[nH]c(-c3ccc(OCC(=O)NCCNC(=O)CCOCCNC(=O)c4ccc(CNC(=O)CCc5ccc6n5[B-](F)(F)[N+]5=C(c7ccc[nH]7)C=CC5=C6)cc4)cc3)nc2n(CCC)c1=O [XAC-3-NB590]"
reported_result = 1.01

